Ref: the supplement of paper PMC8024199

Test system: Mye-BP RUNX1 p.R162K
assay: drug sensitivity score (DSS) (DSS score); higher = more sensitive (stronger growth inhibition); extreme values may be limits of the assay
attribute-measured: drug sensitivity score
// print number alone

Task item: Identify the measured drug sensitivity score of `COc1cc(F)c(F)c(Nc2ccc(I)cc2F)c1NS(=O)(=O)C1(C[C@H](O)CO)CC1` for Mye-BP RUNX1 p.R162K.
Reply: 21

Task item: Identify the measured drug sensitivity score of `C[C@@H](Oc1cc(-c2cnn(C3CCNCC3)c2)cnc1N)c1c(Cl)ccc(F)c1Cl` for Mye-BP RUNX1 p.R162K.
Reply: 4.32

Task item: Identify the measured drug sensitivity score of `C=CC(=O)Nc1cc2c(Nc3ccc(F)c(Cl)c3)ncnc2cc1OCCCN1CCOCC1` for Mye-BP RUNX1 p.R162K.
Reply: 13

Task item: Identify the measured drug sensitivity score of `CN1CC[C@H](c2c(O)cc(O)c3c(=O)cc(-c4ccccc4Cl)oc23)[C@H](O)C1` for Mye-BP RUNX1 p.R162K.
Reply: 20.4
